Source listed as PubChem BioAssay.

target: Homeobox protein Hox-A13 (Mus musculus) (UniProt Q62424); assay: inhibitors of HoxA13-DNA binding, primary screen, biochemical, fluorescence polarization, labeled oligonucleotide (AID 1185); conditions: 15 min, higher = more signal, called active from +8 up or from −8 down
Sequence (Q62424 whole entry, looked up): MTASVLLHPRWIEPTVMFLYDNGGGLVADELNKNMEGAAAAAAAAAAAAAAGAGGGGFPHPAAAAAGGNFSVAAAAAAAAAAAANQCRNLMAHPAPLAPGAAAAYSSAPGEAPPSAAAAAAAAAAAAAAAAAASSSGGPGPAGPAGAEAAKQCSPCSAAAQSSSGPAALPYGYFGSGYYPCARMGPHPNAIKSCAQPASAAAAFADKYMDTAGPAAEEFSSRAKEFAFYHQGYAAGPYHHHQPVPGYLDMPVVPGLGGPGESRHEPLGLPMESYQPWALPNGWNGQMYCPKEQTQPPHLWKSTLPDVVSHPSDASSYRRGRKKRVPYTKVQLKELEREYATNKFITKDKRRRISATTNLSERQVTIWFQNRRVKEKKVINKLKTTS
Readout kind: z-score
# output: bare number, no unit

[[record]]
compound = "C=C[C@@H](COC(C)=O)N(C(=O)OC(C)(C)C)S(=O)(=O)c1ccc(Br)cc1"
assay_value = -2.35

[[record]]
compound = "Cc1ccc(S[C@]2(C(=O)NCC(F)(F)F)CC(=O)N(Cc3ccccc3)[C@@H]2c2ccc(CO)cc2I)cc1"
assay_value = -3.68

[[record]]
compound = "COC(=O)c1ccc([C@H](NC(=O)c2ccco2)[C@]2(C)C[C@H]2C2CCCCC2)cc1"
assay_value = -2.66

[[record]]
compound = "COCCOC(=O)N1C(=O)[C@@]2(c3cc(C#Cc4ccc(OC)cc4)ccc31)[C@H](C(=O)Nc1nc3ccccc3s1)[C@H]1C(=O)O[C@H](c3ccccc3)[C@H](c3ccccc3)N1[C@@H]2c1ccc(O)cc1"
assay_value = -0.829

[[record]]
compound = "O=C1NC(=O)C2C1C=CC(C(O)c1cccc3ccccc13)N2Nc1ccc(Cl)cc1Cl (configuration not stated)"
assay_value = -4.57


Asked: Output measured z-score for this item: COc1ccc([Si](C)(C)[C@@H]2[C@@H](CC(=O)N3Cc4ccccc4C[C@H]3CO)O[C@]3(C(=O)N(C)c4ccccc43)[C@H]2C)cc1
Given back: -6.03

Asked: Tell me measured z-score for CCCC[C@@H]1C[C@H]1[C@@H](NC(=O)Cc1ccccc1)c1ccc(-c2ccccc2)cc1 please.
Given back: -0.559

###

Listed here are compounds together with their documented z-score.
experiment: osmotic lysis modulators in infected erythrocytes, primary screen, PSAC antagonist project, cell-based, P. falciparum Indochina, OD700, 3 h (AID 1156); settings: higher = more signal, called active from +8 up or from −8 down
Active and inactive are the calls of the source.

[[record]]
compound = "CN(C)C(=O)C1N=C(c2ccc(OCCCO)cc2)N(c2ccccc2)O1 (stereo not drawn)"
readout_kind = "z-score"
assay_value = "0.0521 (inactive)"


Asked: Annotate the compound O=C1O[C@H](c2ccccc2)[C@H](c2ccccc2)N2[C@H]1[C@@H](C(=O)Nc1nc3ccccc3s1)[C@]1(C(=O)Nc3ccc(C#CC4(O)CCCCCC4)cc31)[C@H]2c1ccccc1OCCO with its measured z-score.
Given back: 0.602 (inactive)

###

Below, each entry is listed alongside its reported composite z-score.
system: Human papillomavirus type 1a protein E7 (residues 44-93); assay: HPV1a E7 fragment binders on microarrays, primary screen, biochemical, small-molecule microarray, residues 44-93, 635 nm fluorescence (AID 1108); conditions: small-molecule microarray binding, fluorescence 635 nm; higher = more signal;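 also: E7 fragment applied at 1 µg/mL in TBST for 1 h at 4 C; score combines spot fluorescence with its signal to noise ratio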
Field format: numeric only.

[[record]]
substance_smiles = "[N-]=[N+]=Nc1ccccc1[C@H]1OC(c2ccc(OCCCO)cc2)=N[C@@]1(CCS(=O)(=O)c1ccccc1)C(=O)NCCN1CCOCC1"
assay_value = 1.4

[[record]]
substance_smiles = "COC(=O)c1c2oc(c1C(=O)OC)C(=O)N(C)Cc1cn(nn1)C[C@H](Cc1ccccc1)NC(=O)N[C@H](CO)CC2"
assay_value = -1.07


# context switch: different molecule, same composite z-score
Asked: In one line, give reported composite z-score of the entry CCOC(=O)c1ccc(NC(=O)O[C@H]2[C@H](OC(=O)Nc3ccc4c(c3)OCO4)[C@@H](OC(=O)Nc3ccc4c(c3)OCO4)[C@@H](OC)O[C@@H]2CO)cc1 .
Given back: 1.27

###

Attribute: composite z-score
assay: binders of probe aFSTL3 on microarray, primary screen, stem cell growth factor project, biochemical, small-molecule microarray, fluorescence 635/667 (AID 1064); conditions: higher = more signal;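 also: measures binding of the biotinylated anti-FSTL3 antibody to printed compounds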
API note: the answer field is a bare number with no unit suffix.

Asked: Please give the documented composite z-score of COC(=O)[C@@]1(Cc2ccc(F)cc2)[C@H]2c3cc(C(=O)N4CCCC4)n(CCN4CNCC4=O)c3C[C@H]2CN1C(=O)c1ccccc1
Given back: 0.144

Asked: Indicate the recorded composite z-score value for this compound: C=CC[C@]1(C(=O)NCCN2CCOCC2)N=C(c2ccc(OCCCO)cc2)O[C@H]1c1ccccc1CN=[N+]=[N-]
Given back: 0.442

Asked: Quote composite z-score reported for CC1=C[C@@]2(CO)C(=O)[C@]3(CO3)[C@@H]1[C@H]1[C@]2(C)C=C(CO)C(=O)[C@]12CO2 please.
Given back: -0.457

###

assay: small-molecule microarray binders of probe aXIP, primary screen, biochemical, NeuroSMM set, 635/667 nm fluorescence (AID 1119); conditions: higher = more signal, called active from +8 up or from −8 down;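 also: probe is the protein aXip251-270 applied at 1 µg/mL to compound-printed slides; binding of probe to printed compounds measured as 667 nm fluorescence plus signal to noise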
Readout kind: composite Z-score
Answer with the value's number alone.

Some solved cases for reference:
[[record]]
compound = "O=C1O[C@@H](c2ccccc2)[C@@H](c2ccccc2)N2[C@@H](c3ccccc3OCCO)[C@]3(C(=O)Nc4ccc(C#CCCO)cc43)[C@@H](C(=O)N3CCCCCCC3)[C@H]12"
assay_value = 10.6

[[record]]
compound = "OCC1CC(c2ccccc2)=NO1 (stereo not given)"
assay_value = -0.228

[[record]]
compound = "CCOc1cc(C(O)C2C=CC3C(=O)N(c4ccccc4)C(=O)C3N2Nc2ccc(C#N)cc2)ccc1O (stereo not given)"
assay_value = 0.793

[[record]]
compound = "CC(=O)NCCCC[C@@H]1NC(=O)[C@@H]2C[C@H](C(=O)NCCCC[N+](C)(C)C)[C@H](c3ccc(O)cc3)N2C1=O"
assay_value = 0.0463

[[record]]
compound = "CC1=C([C@H](O)CCc2ccccc2)[C@H](CO)[C@@H]2C(=O)N(C)C(=O)[C@@H]2C1"
assay_value = -0.297


Asked: Give composite Z-score for the following compound: COC(=O)[C@@]1(Cc2ccc(OC)cc2)[C@H]2c3cc(C(=O)N4CCCC4)n(Cc4c(-c5ccccc5)noc4C)c3C[C@H]2CN1C(=O)c1ccccc1
Given back: 0.216

Asked: Provide measured composite Z-score value, entry: CCCCC(O)C1C=CC2C(=O)N(c3ccccc3)C(=O)C2N1Nc1ccc(C(C)C)cc1 (stereo not given)
Given back: -0.535

Asked: For the compound O=C1c2ccccc2[C@](Cc2ccccc2I)(C(=O)NCC(F)(F)F)[C@H](c2ccc(CO)cc2)N1C1CCCCC1 , give its measured composite Z-score value.
Given back: 0.328

Asked: Look up and report measured composite Z-score for this entry: Cc1ccc(S[C@]2(C(=O)O)CC(=O)N(Cc3ccccc3Cl)[C@@H]2c2ccc(CO)cc2I)cc1
Given back: -0.648

Asked: Give a short answer stating reported composite Z-score for N#Cc1ccc(C(O)C2C=CC3C(=O)N(c4ccccc4)C(=O)C3N2Nc2ccccc2)cc1 (stereo not given) .
Given back: 0.115

Asked: Report composite Z-score for C=CCC(OC(C)=O)[C@@H]1[C@@H](N(Cc2cc3ccccc3o2)C(=O)c2ccc(-c3ccccc3)cc2)c2cc(OCCCO)ccc2N1C(=O)c1ccc2ccccc2c1 (stereo not given in full)
Given back: 0.142

Asked: Supply measured composite Z-score of NCCCCCCNC(=O)[C@@H]1C[C@@H]2C(=O)N[C@@H](CCCCN)C(=O)N2[C@@H]1c1cccc(OCCO)c1 in your reply.
Given back: 2.87

Asked: Tell me measured composite Z-score for Cc1cc(C)c(C(O)C2C=CC3C(=O)N(c4ccccc4)C(=O)C3N2Nc2ccc(C(C)C)cc2)c(C)c1 (stereo not given) please.
Given back: 0.904

Asked: Retrieve composite Z-score measured for COCCOC(=O)N1C(=O)[C@@]2(c3cc(C#CCNC(N)=O)ccc31)[C@H](C(=O)N1CCc3cc(OC)c(OC)cc3C1)[C@H]1C(=O)O[C@H](c3ccccc3)[C@H](c3ccccc3)N1[C@@H]2c1ccccc1OCCO and print it.
Given back: -0.0476

Asked: Look up composite Z-score of COC(=O)[C@@]1(Cc2ccccc2)[C@H]2c3cc(C(=O)N(C)C)n(CCc4ccc(O)c(OC)c4)c3C[C@H]2CN1C(=O)c1ccccc1 and report it.
Given back: -0.372

###

test: P. aeruginosa biofilm formation inhibitors, primary screen, PAO1 strain, BacTiter-Glo luminescence, LB-PBS (AID 1144); conditions: 12 h, higher = more signal
Listed molecules paired with reported z-score
Returns: the value as a bare number; no unit string appended.

[[record]]
molecule = "O=C(CS)NCCCCCCNC(=O)[C@H]1C[C@H]2C(=O)N[C@@H](Cc3ccccc3)C(=O)N2[C@H]1c1ccc(O)cc1"
readout_kind = "z-score"
assay_value = -0.31

[[record]]
molecule = "C=CCC(OC(C)=O)[C@@H]1[C@@H](N(Cc2ccc(-c3ccccc3)cc2)C(=O)Cc2ccc(F)cc2)c2cc(OCCCO)ccc2N1C(=O)Cc1ccc(OC)cc1 (some centres undefined)"
readout_kind = "z-score"
assay_value = 0.729

[[record]]
molecule = "CC(CO)N1C(=O)[C@@H]2[C@H]3C(=O)OCC=C[C@H]3OC23C=CCN(C(C)(C)C)C(=O)[C@@H]13 (some centres undefined)"
readout_kind = "z-score"
assay_value = 1.15


Shifting focus to the molecule that follows.
Asked: For the molecule COc1ccc([Si](C)(C)[C@@H]2[C@@H](CCO)O[C@]3(C(=O)N(Cc4ccc(N5CCCCC5=O)cc4)c4ccccc43)[C@H]2C)cc1 , give its reported z-score.
Given back: -0.701
